The origin of these recorded values is patent US20040110265A1.

Each entry below carries its reported Polymerase activity after second incubation with indicated substance (% of control).
test system: human plasma polymerase; experiment: Resurrection of plasma polymerase activity after treatment with cysteine-modifying agents; assay type: biochemical; details: no destroying agent in first incubation; 30 mM substance
Give a bare numeral; the unit % is implied.

[[record]]
compound = "NCCS"
value_observed = 6

[[record]]
compound = "O=C(O)CC(S)C(=O)O (centres unmarked)"
value_observed = 7

[[record]]
compound = "N[C@@H](CCC(=O)N[C@@H](CS)C(=O)NCC(=O)O)C(=O)O"
value_observed = 13


Input: Please look at this compound and report its Polymerase activity after second incubation with indicated substance (% of control): `N[C@@H](CS)C(=O)O`
Output: 198

Input: Please look at this compound and report its Polymerase activity after second incubation with indicated substance (% of control): O[C@H](CS)[C@H](O)CS (racemic)
Output: 860

====

Each entry below carries its reported Activity of indicated enzyme in RT assay, plasma 2.
Test system: unidentified RT activity from human plasma
Experiment: RT assay (Cavidi HS-kit Lenti RT) with added components, human plasma polymerase
Assay type: biochemical
Settings: 2.5 10^-6 M final concentration in RT assay; 12 ng odT; 100% = no addition
Procedure: The effect of addition of indicated components to RT reaction mixture devoid of primer (Cavidi HS-kit Lenti RT) was investigated. EDTA plasma from two healthy blood donors (1 μl/assay), recombinant HIV 1 RT or FIV RT of cell culture origin was used as enzyme.
Give a bare numeral; the unit % is implied.

[[record]]
sample_smiles = "Cc1cn([C@H]2CC[C@@H](COP(=O)(O)OP(=O)(O)OP(=O)(O)O)O2)c(=O)[nH]c1=O"
tgt = "unidentified RT activity from human plasma"
value_observed = 9


Input: Please look at this compound and report its Activity of indicated enzyme in RT assay, plasma 2: `Nc1ncnc2c1ncn2[C@H]1CC[C@@H](COP(=O)(O)OP(=O)(O)OP(=O)(O)O)O1`
Output: 105

Input: Please look at this compound and report its Activity of indicated enzyme in RT assay, plasma 2: `Nc1ccn([C@H]2CC[C@@H](COP(=O)(O)OP(=O)(O)OP(=O)(O)O)O2)c(=O)n1`
Output: 103

Input: Please look at this compound and report its Activity of indicated enzyme in RT assay, plasma 2: `Nc1nc2c(ncn2[C@H]2CC[C@@H](COP(=O)(O)OP(=O)(O)OP(=O)(O)O)O2)c(=O)[nH]1`
Output: 109

====

Each entry below carries its reported Activity of indicated enzyme in RT assay, plasma 1.
System: unidentified RT activity from human plasma
Test: RT assay (Cavidi HS-kit Lenti RT) with added components, human plasma polymerase
Format: biochemical
Details: 2.5 10^-6 M final concentration in RT assay; 12 ng odT; 100% = no addition
Experimental: The effect of addition of indicated components to RT reaction mixture devoid of primer (Cavidi HS-kit Lenti RT) was investigated. EDTA plasma from two healthy blood donors (1 μl/assay), recombinant HIV 1 RT or FIV RT of cell culture origin was used as enzyme.

// solved cases for Activity of indicated enzyme in RT assay, plasma 1 follow
[[record]]
sample_smiles = "Nc1ccn([C@H]2CC[C@@H](COP(=O)(O)OP(=O)(O)OP(=O)(O)O)O2)c(=O)n1"
value_observed = "94%"

[[record]]
sample_smiles = "Nc1nc2c(ncn2[C@H]2CC[C@@H](COP(=O)(O)OP(=O)(O)OP(=O)(O)O)O2)c(=O)[nH]1"
value_observed = "103%"


Input: Please look at this molecule and report its Activity of indicated enzyme in RT assay, plasma 1: `Nc1ncnc2c1ncn2[C@H]1CC[C@@H](COP(=O)(O)OP(=O)(O)OP(=O)(O)O)O1`
Output: 94%

Input: Please look at this molecule and report its Activity of indicated enzyme in RT assay, plasma 1: `Cc1cn([C@H]2CC[C@@H](COP(=O)(O)OP(=O)(O)OP(=O)(O)O)O2)c(=O)[nH]c1=O`
Output: 7%

====

tested on: human plasma polymerase; test: Resurrection of plasma polymerase activity after treatment with cysteine-modifying agents; assay type: biochemical; conditions: no destroying agent in first incubation; 10 mM substance
Recorded Endpoint: Polymerase activity after second incubation with indicated substance (% of control) (%)
Give a bare numeral; the unit % is implied.

[[record]]
compound = "O=C(O)CC(S)C(=O)O (centres unmarked)"
value_observed = 64

[[record]]
compound = "N[C@@H](CS)C(=O)O"
value_observed = 145

[[record]]
compound = "NCCS"
value_observed = 6

[[record]]
compound = "O[C@H](CS)[C@H](O)CS (racemic)"
value_observed = 767


Query compound follows.
Input: Report Polymerase activity after second incubation with indicated substance (% of control) on human plasma polymerase for this entry: `N[C@@H](CCC(=O)N[C@@H](CS)C(=O)NCC(=O)O)C(=O)O`
Output: 80

====

test system: human plasma polymerase; experiment: Resurrection of plasma polymerase activity after treatment with cysteine-modifying agents; format: biochemical; conditions: no destroying agent in first incubation; 3.3 mM substance
Each entry below carries its reported Polymerase activity after second incubation with indicated substance (% of control).
Give a bare numeral; the unit % is implied.

// solved cases for Polymerase activity after second incubation with indicated substance (% of control) follow
[[record]]
compound = "N[C@@H](CCC(=O)N[C@@H](CS)C(=O)NCC(=O)O)C(=O)O [glutathione]"
units_of_measure = "%"
value_observed = 78

[[record]]
compound = "O[C@H](CS)[C@H](O)CS (racemic) [DTT, Dithiothreitol]"
units_of_measure = "%"
value_observed = 613

[[record]]
compound = "O=C(O)CC(S)C(=O)O (centres unmarked) [MSA, Mercaptosuccinic acid]"
units_of_measure = "%"
value_observed = 110


Input: Report Polymerase activity after second incubation with indicated substance (% of control) on human plasma polymerase for this entry: NCCS [cysteamine]
Output: 9

Input: Report Polymerase activity after second incubation with indicated substance (% of control) on human plasma polymerase for this entry: N[C@@H](CS)C(=O)O [cysteine]
Output: 82

====

Each entry below carries its reported Activity of indicated enzyme in RT assay, HIV.
target: recombinant HIV 1 RT (Human immunodeficiency virus type 1 group M subtype B); construct: recombinant HIV 1 RT or FIV RT of cell culture origin was used as enzyme; test: RT assay (Cavidi HS-kit Lenti RT) with added components, recombinant HIV 1 RT; assay type: biochemical; settings: 2.5 10^-6 M final concentration in RT assay; 12 ng odT; 100% = no addition
Give a bare numeral; the unit % is implied.

Input: Please look at this molecule and report its Activity of indicated enzyme in RT assay, HIV: `Nc1nc2c(ncn2[C@H]2CC[C@@H](COP(=O)(O)OP(=O)(O)OP(=O)(O)O)O2)c(=O)[nH]1`
Output: 94

Input: Please look at this molecule and report its Activity of indicated enzyme in RT assay, HIV: `Nc1ccn([C@H]2CC[C@@H](COP(=O)(O)OP(=O)(O)OP(=O)(O)O)O2)c(=O)n1`
Output: 89

Input: Please look at this molecule and report its Activity of indicated enzyme in RT assay, HIV: `Cc1cn([C@H]2CC[C@@H](COP(=O)(O)OP(=O)(O)OP(=O)(O)O)O2)c(=O)[nH]c1=O`
Output: 18

Input: Please look at this molecule and report its Activity of indicated enzyme in RT assay, HIV: `Nc1ncnc2c1ncn2[C@H]1CC[C@@H](COP(=O)(O)OP(=O)(O)OP(=O)(O)O)O1`
Output: 90

====

Each entry below carries its reported Polymerase activity after second incubation with indicated substance (% of control).
system: human plasma polymerase; experiment: Resurrection of plasma polymerase activity after treatment with cysteine-modifying agents; assay type: biochemical; details: no destroying agent in first incubation; 1.1 mM substance
Give a bare numeral; the unit % is implied.

// solved cases for Polymerase activity after second incubation with indicated substance (% of control) follow
[[record]]
compound = "NCCS"
tgt = "human plasma polymerase"
units_of_measure = "%"
value_observed = 15

[[record]]
compound = "N[C@@H](CCC(=O)N[C@@H](CS)C(=O)NCC(=O)O)C(=O)O"
tgt = "human plasma polymerase"
units_of_measure = "%"
value_observed = 72

[[record]]
compound = "O[C@H](CS)[C@H](O)CS (racemic)"
tgt = "human plasma polymerase"
units_of_measure = "%"
value_observed = 260

[[record]]
compound = "N[C@@H](CS)C(=O)O"
tgt = "human plasma polymerase"
units_of_measure = "%"
value_observed = 72


Query compound follows.
Input: Please look at this compound and report its Polymerase activity after second incubation with indicated substance (% of control): O=C(O)CC(S)C(=O)O (centres unmarked)
Output: 109
